Data credit: ChEMBL document CHEMBL5058577

test system: U2OS; experiment: Multiplex assay against U2OS; format: toxicity, cell-based; details: human, 48 h, 10 µM, compound concentration 10 uM, replicate 2
Assign yes whenever Total Cell Count does not fall below 200; assign no whenever it does.

Does the molecule `CCCOc1ccc2[nH]cc(C3=CCNCC3)c2n1.Cl` have recorded Total Cell Count that is 200 or more?
yes

Does the molecule `CC(C)c1noc(N2CCC(COc3ccc(-c4ccc(S(C)(=O)=O)cc4)nc3)CC2)n1` have recorded Total Cell Count that is 200 or more?
no

Does the molecule `COc1cccc2c1c(NS(=O)(=O)c1ccc(Cl)s1)nn2Cc1cccc(CNC(=O)C(C)(C)O)c1` have recorded Total Cell Count that is 200 or more?
yes

Does the molecule `CN1CCN(c2cc(-c3ccccc3)nc(N)n2)CC1` have recorded Total Cell Count that is 200 or more?
yes

Does the molecule Cl.N=C(N)NC(=O)Cc1c(Cl)cccc1Cl [GUANFACINE HYDROCHLORIDE] have recorded Total Cell Count that is 200 or more?
yes

Does the molecule `Cc1cnc(-c2cc(N3CCN(C(=O)CCS(C)(=O)=O)CC3)ncc2Cl)c(C)c1` have recorded Total Cell Count that is 200 or more?
no

Does the molecule `N#Cc1c(Oc2cccc(OS(=O)(=O)CCCC(F)(F)F)c2)cccc1C(F)(F)F` have recorded Total Cell Count that is 200 or more?
no
